- Tested on: EPHHL
- measurement.description: Greenhouse test, post-emergence (PO) application, foliar effect
- Assay type: in vivo, Euphorbia heterophylla
- condition: EPHHL sensitive, (A) 50, (B) 20, mixture 50 + 20 g of AS/ha, 3 weeks after application
quantity: foliar effect (%)
// return numeric value only (unit: %, not printed)

The compound listed as Cc1ccc2c(c1)[C@H](Nc1nc(N)nc(C(C)F)n1)[C@@H](C)C2 (stereo partly drawn) has a reported foliar effect of 60

# foliar effect of CCS(=O)(=O)c1cccnc1S(=O)(=O)NC(=O)Nc1nc(OC)cc(OC)n1 = 80

foliar effect for COc1cc(OC)nc(NC(=O)NS(=O)(=O)c2ncccc2C(F)(F)F)n1 is 80

So for CCOC(=O)c1ccccc1S(=O)(=O)NC(=O)Nc1nc(Cl)cc(OC)n1 , the logged foliar effect turned out to be 60

// foliar effect lookup, compound = COc1cc(OC)nc(NC(=O)NS(=O)(=O)c2cc(NC=O)ccc2C(=O)N(C)C)n1 , result: 80

Summary for this compound, COC(=O)c1csc(C)c1S(=O)(=O)NC(=O)n1nc(OC)n(C)c1=O : foliar effect is 70

====

- Tested on: APESV
- measurement.description: Greenhouse test, post-emergence (PO) application, foliar effect
- Format: in vivo, Apera spica-venti
- condition: APESV sensitive, (A) 50, (B) 20, mixture 50 + 20 g of AS/ha, 3 weeks after application
quantity: foliar effect (%)
Your answer is read as %, so omit the unit and give the number.

Noted for COc1cc(OC)nc(NC(=O)NS(=O)(=O)c2ncccc2C(F)(F)F)n1 : its foliar effect reads 100

foliar effect for COC(=O)c1csc(C)c1S(=O)(=O)NC(=O)n1nc(OC)n(C)c1=O is 100

According to the records, this compound CCOC(=O)c1ccccc1S(=O)(=O)NC(=O)Nc1nc(Cl)cc(OC)n1 displays foliar effect of 100

The measured foliar effect associated with COc1cc(OC)nc(NC(=O)NS(=O)(=O)c2cc(NC=O)ccc2C(=O)N(C)C)n1 reads 100

The recorded foliar effect for entry Cc1ccc2c(c1)[C@H](Nc1nc(N)nc(C(C)F)n1)[C@@H](C)C2 (stereo partly drawn) equals 65

Per the record, CCS(=O)(=O)c1cccnc1S(=O)(=O)NC(=O)Nc1nc(OC)cc(OC)n1 has foliar effect of 100

====

- Tested on: EPHHL
- measurement.description: Greenhouse test, post-emergence (PO) application, foliar effect
- Type: in vivo, Euphorbia heterophylla
- condition: EPHHL resistant - group B (TSR), (A) 50, (B) 20, mixture 50 + 20 g of AS/ha, 3 weeks after application
Give measured foliar effect for each item. Keep answers brief.
Reply numerically in %, unit not repeated.

Summary: COC(=O)c1csc(C)c1S(=O)(=O)NC(=O)n1nc(OC)n(C)c1=O , EPHHL, foliar effect = 20

Here Cc1ccc2c(c1)[C@H](Nc1nc(N)nc(C(C)F)n1)[C@@H](C)C2 (stereo partly drawn) was tested on EPHHL, and its foliar effect came to 55

Entry COc1cc(OC)nc(NC(=O)NS(=O)(=O)c2cc(NC=O)ccc2C(=O)N(C)C)n1 , tested on EPHHL, has a reported foliar effect of 30

# lookup: COc1cc(OC)nc(NC(=O)NS(=O)(=O)c2ncccc2C(F)(F)F)n1 on EPHHL, foliar effect = 30

The value of foliar effect recorded for CCS(=O)(=O)c1cccnc1S(=O)(=O)NC(=O)Nc1nc(OC)cc(OC)n1 when tested on EPHHL reads 60

Known value: EPHHL foliar effect of the compound CCOC(=O)c1ccccc1S(=O)(=O)NC(=O)Nc1nc(Cl)cc(OC)n1 equals 30

====

- Tested on: ALOMY
- measurement.description: Greenhouse test, pre-emergence (PE) soil application
- Assay type: in vivo, Alopecurus myosuroides
- condition: group (B) compound alone, 20 g of AS/ha
- Experimental: The 1:1 mixture of the two soil types was used specifically for cultivating small-seeded dicotyledonous weed since the standard field soil on its own tends to silt up, which may have an adverse effect on the emergence of small-seeded weeds. The resistances mentioned in the tables were confirmed beforehand in standard monitoring experiments. […] 3 weeks after the application, the foliar effect was evaluated on a scale of 0-100%: […]
quantity: effect on ALOMY sensitive
// return just the number, without any unit appended

Entry COc1cc(OC)nc(NC(=O)NS(=O)(=O)c2cc(NC=O)ccc2C(=O)N(C)C)n1 , ALOMY data, effect on ALOMY sensitive value: 90

Item CCOC(=O)c1ccccc1S(=O)(=O)NC(=O)Nc1nc(Cl)cc(OC)n1 was tested on ALOMY; the reported effect on ALOMY sensitive is 100

Noted effect on ALOMY sensitive for COC(=O)c1csc(C)c1S(=O)(=O)NC(=O)n1nc(OC)n(C)c1=O , tested on ALOMY: 100

Let me check: CCS(=O)(=O)c1cccnc1S(=O)(=O)NC(=O)Nc1nc(OC)cc(OC)n1 , system ALOMY, measured effect on ALOMY sensitive is 100

The measured effect on ALOMY sensitive that COc1cc(OC)nc(NC(=O)NS(=O)(=O)c2ncccc2C(F)(F)F)n1 showed for ALOMY is 100

====

- System: APESV
- measurement.description: Greenhouse test, post-emergence (PO) application, foliar effect
- Format: in vivo, Apera spica-venti
- condition: APESV resistant - group B (TSR, NTR) and K1/3 (NA), (A) 50, (B) 20, mixture 50 + 20 g of AS/ha, 3 weeks after application
Give foliar effect for every item shown.
Record the value in %, omitting the unit from your answer.

foliar effect on APESV for CCS(=O)(=O)c1cccnc1S(=O)(=O)NC(=O)Nc1nc(OC)cc(OC)n1 is 20

Record CCOC(=O)c1ccccc1S(=O)(=O)NC(=O)Nc1nc(Cl)cc(OC)n1 ; system APESV; foliar effect = 0

# foliar effect measured on APESV for item COc1cc(OC)nc(NC(=O)NS(=O)(=O)c2ncccc2C(F)(F)F)n1 = 30

Recorded foliar effect for COC(=O)c1csc(C)c1S(=O)(=O)NC(=O)n1nc(OC)n(C)c1=O on APESV was 0

Tested system APESV; foliar effect recorded for Cc1ccc2c(c1)[C@H](Nc1nc(N)nc(C(C)F)n1)[C@@H](C)C2 (stereo partly drawn) was 60

Test item COc1cc(OC)nc(NC(=O)NS(=O)(=O)c2cc(NC=O)ccc2C(=O)N(C)C)n1 ; APESV; reported foliar effect was 0

====

- System: ERICA
- measurement.description: Greenhouse test, post-emergence (PO) application, foliar effect
- Format: in vivo, Erigeron canadensis
- condition: ERICA resistant - group B (NA) and G (NTR), (A) 50, (B) 20, mixture 50 + 20 g of AS/ha, 3 weeks after application
quantity: foliar effect (%)
Record the value in %, omitting the unit from your answer.

foliar effect value, target or system ERICA, for COc1cc(OC)nc(NC(=O)NS(=O)(=O)c2ncccc2C(F)(F)F)n1 [(B1), flazasulfuron] : 50

Tested on ERICA: COC(=O)c1csc(C)c1S(=O)(=O)NC(=O)n1nc(OC)n(C)c1=O [(B5), thiencarbazone-methyl] . Observed foliar effect: 60

Measured on ERICA, COc1cc(OC)nc(NC(=O)NS(=O)(=O)c2cc(NC=O)ccc2C(=O)N(C)C)n1 [(B2), foramsulfuron] has a documented foliar effect of 40

Response field foliar effect (ERICA) for item CCOC(=O)c1ccccc1S(=O)(=O)NC(=O)Nc1nc(Cl)cc(OC)n1 [(B4), chlorimuron-ethyl] : 60

Here Cc1ccc2c(c1)[C@H](Nc1nc(N)nc(C(C)F)n1)[C@@H](C)C2 (stereo partly drawn) [(A), indaziflam] was tested on ERICA, and its foliar effect came to 50

Reported ERICA foliar effect for item CCS(=O)(=O)c1cccnc1S(=O)(=O)NC(=O)Nc1nc(OC)cc(OC)n1 [(B3), rimsulfuron] was 60

====

Can you tell me foliar effect for the items I'm about to list?
- Test system: ERIBO
- measurement.description: Greenhouse test, post-emergence (PO) application, foliar effect
- Assay type: in vivo, Erigeron bonariensis
- condition: ERIBO resistant - group B (NA) and G (NTR), (A) 50, (B) 20, mixture 50 + 20 g of AS/ha, 3 weeks after application
Record the value in %, omitting the unit from your answer.

# foliar effect of COc1cc(OC)nc(NC(=O)NS(=O)(=O)c2ncccc2C(F)(F)F)n1 = 50

The reported value for CCOC(=O)c1ccccc1S(=O)(=O)NC(=O)Nc1nc(Cl)cc(OC)n1 in terms of foliar effect is 60

// recorded foliar effect for COc1cc(OC)nc(NC(=O)NS(=O)(=O)c2cc(NC=O)ccc2C(=O)N(C)C)n1 : 40

The compound identified as CCS(=O)(=O)c1cccnc1S(=O)(=O)NC(=O)Nc1nc(OC)cc(OC)n1 registered its foliar effect at 60

Input COC(=O)c1csc(C)c1S(=O)(=O)NC(=O)n1nc(OC)n(C)c1=O . Output foliar effect: 60

Documented foliar effect of Cc1ccc2c(c1)[C@H](Nc1nc(N)nc(C(C)F)n1)[C@@H](C)C2 (stereo partly drawn) : 50
